Each entry below carries its recorded Ki.
- assay_system: PPAR-α (Homo sapiens)
- Sequence (Q07869 whole entry, species assumed): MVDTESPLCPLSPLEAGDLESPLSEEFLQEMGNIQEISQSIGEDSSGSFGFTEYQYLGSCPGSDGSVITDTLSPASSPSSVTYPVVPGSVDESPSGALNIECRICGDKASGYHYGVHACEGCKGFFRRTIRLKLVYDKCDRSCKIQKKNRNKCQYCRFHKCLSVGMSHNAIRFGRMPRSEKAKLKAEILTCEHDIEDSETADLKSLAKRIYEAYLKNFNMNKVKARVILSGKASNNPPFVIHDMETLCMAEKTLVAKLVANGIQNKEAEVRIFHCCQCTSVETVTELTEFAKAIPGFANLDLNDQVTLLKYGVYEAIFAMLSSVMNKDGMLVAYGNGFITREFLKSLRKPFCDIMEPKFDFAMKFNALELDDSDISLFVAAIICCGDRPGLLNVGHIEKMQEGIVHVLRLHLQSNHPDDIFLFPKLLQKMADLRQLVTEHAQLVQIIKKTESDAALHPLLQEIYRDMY
- protocol_notes: Scintillation Proximity Assay (SPA), displacement of 3H labeled GW2331
- Type: binding
- cond: 3H GW2331 displacement, read-out: PPAR-alpha Ki
Numbers only; they are read as nM.

CC(C)(Oc1cccc(-c2cccc(OCCCOCc3ccccc3)c2)c1)C(=O)O | 1300
CCOC(Cc1ccc(OCCc2ccc(OS(=O)(=O)c3ccccc3)cc2)nc1)C(=O)O (stereo not shown) | 910
Cc1oc(-c2cc(F)cc(F)c2)nc1CCOc1cccc(-c2cccc(OC(C)(C)C(=O)O)c2)c1 | 850

Please report Ki for the following compound: CCC(Oc1cccc(CNC(=O)OCc2ccc(OCc3ccccc3)cn2)c1)C(=O)O (stereo not shown)
960

====

This listing pairs compounds with measured pKi.
- assay_system: UniProtKB Q07869
- protocol_notes: Scintillation Proximity Assay (SPA), displacement of 3H labeled GW2331
- Assay type: binding
- cond: 3H GW2331 displacement, read-out: PPAR-alpha Ki
Kindly note that pKi refers to -log10 of the concentration in mol/L and answer with the value alone.

CC(C)(Oc1cccc(CNC(=O)OCCc2cccc(C(F)(F)F)c2)c1)C(=O)O [Example B-03] | 5.05

Report pKi from UniProtKB Q07869 testing of Cc1oc(-c2cccc(C(F)(F)F)c2)nc1CCOc1ccc(CC2(C(=O)O)CCCO2)cc1 (stereo not shown) [Example C-87]
7.60

Provide pKi, recorded with UniProtKB Q07869, of Cc1oc(-c2cccc(Cl)c2)nc1CCOc1ccc(CC2(C(=O)O)CCC2)cc1 [Example C-31]
7.03

GET pKi where system = UniProtKB Q07869 and item = Cc1oc(-c2ccc(C(F)(F)F)cc2)nc1CCOc1ccc(CC2(C(=O)O)CCCO2)cc1 (stereo not shown) [Example C-90]
6.96

====

- assay_system: PPAR-γ (Homo sapiens)
- Sequence (P37231 whole entry, species assumed): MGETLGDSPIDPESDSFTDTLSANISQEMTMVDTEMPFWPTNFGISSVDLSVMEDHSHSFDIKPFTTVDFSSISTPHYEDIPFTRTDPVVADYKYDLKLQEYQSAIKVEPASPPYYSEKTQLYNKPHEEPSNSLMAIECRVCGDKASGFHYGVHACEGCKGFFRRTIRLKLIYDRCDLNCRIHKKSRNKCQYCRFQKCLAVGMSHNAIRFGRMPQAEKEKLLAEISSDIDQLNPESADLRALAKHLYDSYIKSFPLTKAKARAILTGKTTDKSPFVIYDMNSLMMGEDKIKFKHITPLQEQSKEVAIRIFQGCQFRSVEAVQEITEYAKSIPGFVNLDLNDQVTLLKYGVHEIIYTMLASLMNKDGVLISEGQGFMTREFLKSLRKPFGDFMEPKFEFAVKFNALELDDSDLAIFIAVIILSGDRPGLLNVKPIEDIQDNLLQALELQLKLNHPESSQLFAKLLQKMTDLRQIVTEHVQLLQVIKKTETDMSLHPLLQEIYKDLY
- protocol_notes: Scintillation Proximity Assay (SPA), displacement of 3H labeled darglitazone
- Assay type: binding
- cond: 3H darglitazone displacement, read-out: PPAR-gamma Ki
Overview of recorded pKi for various compounds
Keep it numeric: pKi is minus log10 of the concentration in mol/L.

Cc1oc(-c2ccccc2)nc1CCCOc1cccc(-c2cccc(OC3(C(=O)O)CCC3)c2)c1 [Example A-12] | 7.29
Cc1oc(-c2ccccc2C#N)nc1CCOc1ccc(CC2(C(=O)O)CCC2)cc1 [Example C-22] | 6.10

Now examine the next entry.
Note down pKi recorded for Cc1oc(-c2ccccc2)nc1COc1cccc(-c2cccc(OC(C)(C)C(=O)O)c2)c1 [Example A-24]
6.11
